tgt: RARα (RAR alpha LBD-GST) (Homo sapiens)
Construct: A mixture of 5 nM RAR alpha LBD-GST, 5 nM TbAnti-GST antibody, 50 nM Fluorescein-D22 was added to the wells
Sequence (P10276 183-417 limits assumed): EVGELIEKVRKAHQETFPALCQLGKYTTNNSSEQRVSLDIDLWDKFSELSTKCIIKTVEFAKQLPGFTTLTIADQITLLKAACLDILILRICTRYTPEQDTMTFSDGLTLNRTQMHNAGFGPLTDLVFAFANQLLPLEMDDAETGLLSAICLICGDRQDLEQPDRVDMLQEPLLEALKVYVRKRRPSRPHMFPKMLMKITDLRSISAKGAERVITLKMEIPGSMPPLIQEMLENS
test: Receptor binding assay (LanthaScreen TR-FRET RAR alpha Coactivator Assay)
assayConditions: 1 h incubation, AM80 positive control, read-out: RARα binding affinity EC50
assayMetric: EC50 (µM)
Numbers only, in µM.

O=C(O)c1ccc(C(=O)Nc2ccc3c(c2)CCC3)cc1 [Compound 36a] ... 0.0121

For each of the compounds below, note its EC50.
1. COC1c2cc(NC(=O)c3ccc(C(=O)O)cc3)ccc2CC1C(C)C (stereo not drawn) [Compound 36o]
2. CCOC1c2cc(NC(=O)c3ccc(C(=O)O)cc3)ccc2CC1C(C)C (stereo not drawn) [Compound 36p]
3. CC(C)C1=Cc2cc(NC(=O)c3ccc(C(=O)O)cc3)ccc2C1 [Compound 36j]
4. CC(C)C1Cc2ccc(NC(=O)c3ccc(C(=O)O)cc3)cc2C1=O (stereo not drawn) [Compound 36l]
5. COC1CCc2ccc(NC(=O)c3ccc(C(=O)O)cc3)cc21 (stereo not drawn) [Compound 36b]
6. COC1c2cc(NC(=O)c3ccc(C(=O)O)cc3)ccc2CC1C (stereo not drawn) [Compound 36m]
7. CC(C)OC1CCc2ccc(NC(=O)c3ccc(C(=O)O)cc3)cc21 (stereo not drawn) [Compound 36d]

Response line:
0.00393
0.00903
0.00353
0.00468
0.13
0.292
0.0243
